Every entry's value here was drawn from the supplement of paper PMC6522484.

List of cell viability values.
System: DLD1
Experimental Protocol: cell viability (CellTiter-Glo) relative to plate median (fraction of plate median); higher = more viable cells
Test Conditions: 5 µM; treatment time 24 h; reporter: 7TFP
API doc: respond with a numeric literal and nothing else, no unit.

# annotated cases, reported cell viability shown
CC[C@H](/C=C/[C@@H](C)[C@H]1CC[C@H]2[C@@H]3CC=C4C[C@@H](O)CC[C@]4(C)[C@H]3CC[C@]12C)C(C)C
1.04
C[C@@H]1C[C@H]2[C@@H]3CCC4=CC(=O)C=C[C@]4(C)[C@@]3(F)[C@@H](O)C[C@]2(C)[C@@]1(O)C(=O)CO
1.06
O=C(C=Cc1ccc(O)cc1)c1ccccc1O
0.926

Please find the next molecule below.
Please give the documented cell viability of CC1(C)C[C@@H]2/C(CO)=C\C=C/[C@@](C)(O)CC[C@]21O 1.08

###

Test system: HCT116
Experimental Protocol: cell viability (CellTiter-Glo) relative to plate median (fraction of plate median); higher = more viable cells
Test Conditions: 5 µM; treatment time 24 h; reporter: TCF4/Wnt
Metric Name: cell viability

# annotated cases, reported cell viability shown
C[C@]12CC[C@@H]3c4ccc(O)cc4CC[C@H]3[C@@H]1CC[C@@H]2OC(=O)CCC1CCCC1
1.01
CCN1CCCC(OC(=O)C(c2ccccc2)c2ccccc2)C1 (centres undefined)
1.01
COC(=O)/C=C/c1ccc(O)c(O)c1 [Caffeic acid methylester]
0.987

Please give the documented cell viability of O=C(Cc1cccs1)N[C@@H]1C(=O)N2C(C(=O)[O-])=C(C[n+]3ccccc3)CS[C@H]12 0.944

Please give the documented cell viability of CN(C)CCOC(c1ccccc1)c1ccccc1.Cn1c(=O)c2[nH]c(Cl)nc2n(C)c1=O 1.04

Please give the documented cell viability of COC(=O)C[C@H]1C(C)(C)C(=O)[C@@H]2CC3=C(CC[C@]4(C)C3=CC(=O)O[C@H]4c3ccoc3)[C@@]1(C)C2=O 0.979

Please give the documented cell viability of COc1ccc(-c2cc(=O)c3c(O)cc(O)cc3o2)cc1 0.935

Please give the documented cell viability of C[C@@H]1CCCCCCCCC[C@H](OC(=O)CCC(=O)O)C(=O)/C=C/C(=O)O1 1.09

Please give the documented cell viability of COc1ccc2ccc(=O)oc2c1CC=C(C)C 1.01

Please give the documented cell viability of O=CNc1ccccc1C(=O)O [N-Formylanthranilic acid] 1.02

Please give the documented cell viability of CCn1cc(C(=O)O)c(=O)c2cc(F)c(N3CCNCC3)cc21 0.98

###

Tested on: SW480
Experimental Protocol: TCF/Wnt firefly luciferase reporter signal relative to plate median (fraction of plate median); higher = higher Wnt reporter signal
Test Conditions: 10 µM; treatment time 24 h; reporter: 7TFP
Counter-ions that a name gives are not always drawn.
Metric Name: TCF/Wnt firefly luciferase reporter signal
API doc: respond with a numeric literal and nothing else, no unit.

# annotated cases, reported TCF/Wnt firefly luciferase reporter signal shown
FC(F)(F)c1ccc(/C=C/c2nc(COc3ccc(CCCCn4ccnn4)cc3)co2)cc1
0.816
S=C(NCc1ccc2c(c1)OCO2)N1CCN(c2ncnc3c2oc2ccccc23)CC1
0.953
CN(c1ncccc1CNc1nc(Nc2ccc3c(c2)CC(=O)N3)ncc1C(F)(F)F)S(C)(=O)=O
0.911
Cn1cc(-c2ccc3nnc(C(F)(F)c4ccc5ncccc5c4)n3n2)cn1
1.06

Please give the documented TCF/Wnt firefly luciferase reporter signal of CC1(COc2ccc3c(c2)ncn3-c2ccc3cccc(N4CCC(N)CC4)c3n2)COC1 1.64

Please give the documented TCF/Wnt firefly luciferase reporter signal of COc1cc2nccc(Oc3ccc(NC(=O)C4(C(=O)Nc5ccc(F)cc5)CC4)cc3)c2cc1OC [XL-184 free base (Cabozantinib)] 1.03

Please give the documented TCF/Wnt firefly luciferase reporter signal of C#Cc1cccc(Nc2ncnc3cc(OCCOC)c(OCCOC)cc23)c1 [Erlotinib HCl] 0.868

Please give the documented TCF/Wnt firefly luciferase reporter signal of N#CC[C@H](C1CCCC1)n1cc(-c2ncnc3[nH]ccc23)cn1 1.09
